experiment: soluble on expression in E. coli; label from the status in PepcDB or PDB records

input-sequence | soluble on expression in E. coli
EIKQNEQRLNAIVQNLVSGVMLINVDKQVIMTNRTMYQILGETEITGKPFYEVIKSFALSQLIDATFETKTMQQKEIILYFPREMILDASVSPILAENGEITGIILLLHDIT | not soluble
MGSDKIHHHHHHMAATPRKLSSKEVAALVGNLMEASESTSLENGLEVRPYAFGENELNQLGDYHALRIINERFCRTARDVFLPMLRLQPRISSFPPEVRSFDDYRSSQDNFVSITASRIEELRGNQMIVIPPPFISLLTDSYYGGQIRHVPTTRTEFTATEERVIELVTDRLNVALQVAWRDLMALTFTVVSREESMQFASFVDGEDMVVNCSFMVQLPNTEPASFDILYPLQTLKPISSQLRSRMQSDFVDDDRSWREKLERAILSIPLTLSARLCEPEVPLRQLMQMQPGDVLPVHLTEAVSLLVEGQPIFEAAPGERGGQAALNLTRRHVRS | not soluble
MMPKVYGSLVDNETRCTHYHTFLDVIAIKFKCCNKYYPCYQCHEEHETHPIKRWSEQEFDEKAIMCGVCKHEMSIQDYMMTELCPKCQAHFNSRCKFHYHLYFELLEHHHHHH | not soluble

* * *

assay: soluble on expression in E. coli; label from the status in PepcDB or PDB records

input-sequence | soluble on expression in E. coli
MCFINLRSVADTINTQTRRITMFTYYQAENSTAEPALVNAIEQGLRAQHGVVTEDDILMELTKWVEASDNDILSDIYQQTINYVVSGQHPTLLEHHHHHH | not soluble
MAHHHHHHMSTGHLRSVQLCRGQLRSLSHSSSMVGLRDFCNLVDECIKDIGVLKVNADDARILLHKRQQTFPSRHCDGVLAQTQVLYAQVLLKNLAEPVNRLIVRPVAVKNEGSEGLGVLHKPYDGAQSASPEIIAAQLELLQRAHRPTALNVLQDCRVHAATLLRAVRAVQLAQVRFSPHEKCTNTHGPKKKKK | not soluble
MADILLLDNIDSFTYNLVDQLRSSGHRVVIYRNHIAADNIIERLQQLEQPVLMLSPGPGTPAQAGCMPELLQRLQGQLPMIGICLGHQAIIEAYGGHVGQAGEILHGKASAIEHDGQGMFAGMPNPLPVARYHSLVGSNLPAELTVNARFGEMVMAVRHDAHRVCGYQFHPESILTTHGARLLEQTLAWALA | not soluble
MIWLVLVLSLFLFSCEKLNEIFLEEDLLQRPPSKRCSDCHAKIYEDWEKSRHAKAWVSEHFKEESENYSKLKCLSCHAPHQVDPLKKPVLRVERRHEGVNCIACHFKEETKAMHGPYKVFSPPHPSREDKNYTKSEICAGCHQKTYREWKIARVKTTCQQCHMKVVDYAWIMDKFPFFLFHSRKALHDHTFPAGKATPKDIKLILTEGALNIINVGIPHNLPTADQGNPKLYLIIEFYYKDGKKKVLRRVLSPQAKTALAYLIPYTVKIPRYEKLEKVRVSIYRRLAWEKKRELILSEELKKPF | not soluble

* * *

test: soluble on expression in E. coli; label from the status in PepcDB or PDB records
measured-quantity: soluble on expression in E. coli

input-sequence | measured-quantity | result
EHRKVERGILAYQPGKLLVRGDTPLFKIERLLGIDLDHIEAETLAGLIYETLKRVPEEEEQMEVEGLRIIIKKMKGPKIVLAKVLKLD | soluble on expression in E. coli | not soluble
MGSDKIHHHHHHMLERYQGEDGRRLRVEAALDSKLAKGNQALAEAIADVATLRQFKAGQALIEQGGDDNQVYILISGSCDVIVNAKVVNRRGPGDHVGEMAAIQPAQRRSATIMATEQVLAFELPEPVFANLAATYPDIYRLIAKDLARRLLQRNAVTGTPRKRIRVFVISSVEALPIARAIQTAFEYDPFTVIVWTDGVFKVANYTLQSLEDEIDNSDFAIAIAHPDDKVESRQAQWPQPRDNVIFELGLFMGRLGRARAILMEPRDEKVKLPSDLAGVTTIGYRFDPDGDTQAALAPACNRLRNHIVELGLAVG | soluble on expression in E. coli | not soluble
MSIRDWPEAERPREKLLEQGAAALSDAELLAIFLRTGVTGCSAVELSRRLLSEFGGLRALLEADLASFCGHLGLGVAKYAQLQAVLEMGRRHLAERLRRDSILESPQAVRDYLKARLRHEQHEVFACLFLDTRHRVLSFEVLFQGSIDGASVYPRQVVKRTLAHNAAALILTHNHPSGDARPSLADRQLTARLKEALALIDVRVLDHFIIGDGEPLSLAEYGWL | soluble on expression in E. coli | not soluble

* * *

test: soluble on expression in E. coli; label from the status in PepcDB or PDB records
measured-quantity: soluble on expression in E. coli

input-sequence | soluble on expression in E. coli
FHQISSRIQKSIDVDEVLRLCAEGLHDVLGYERVNILMADTARTSLSFVAAVGTADFNPAGVVLPLDQRGGVITKCFTDRQVYMIDDVSAYPTDFRLQSPYDAIRALRSKSFVICPIVVKGEAIGVFAVDNRSSRRSLNDTDVDTIKLFADQASSAIVRINLLKAI | soluble
MCTGFTIQTLNNQVLLGRTMDYDYPLDGSPAVTPRNYRWKSRTGTTGQTQYGFIGTGTDMEGFIYGDGVNEHGVAISTQYFRGYSSYGSTHKADAMNITQNEIVTWILVYTTSIEDMKQQASQIHVVAVYLNDIGEVPPLHYHVSDATGHTVEVSFKEGEVVIKDNPIGVLTNHPDLNWHYSNLRQYINISPYPATANLLEGVTIEPLGNEAGTFGLPGGFTSTERFVRMTFMKANIAQNNDKEMDLMNAFYLLDAVNIPIGIVRPHDADNHYTMYQTVINLTTRTLYIKYYGSNELVALKLTDDLINRKDMTIFKPEKHITIRKLNDNQ | not soluble
MSLKREEICRLLADKVNKLKNKENSLSELLPDVRLLYGETPFARTPVMYEPGIIILFSGHKIGYINERVFRYDANEYLLLTVPLPFECETYATSEVPLAGLRLNVDILQLQELLMDEGHHHHHH | not soluble
MSLQAAKEVCLWPLHEREPDTTWSRGPLVLLGDAGHPMRPHMAQGAAMAIEDAAVLVRCLRAYGAAAGAAYDHYQQTRAERVAQVQKVSSENSWMRTPTDPEWVFSYDALLAPEGHHHHHH | not soluble

Per the record, MAHHHHHHMYYIYIYIYENGSAYQKDNDNTVENKLLENLYKLELIDNYDTPLSRVSRTDKGVSARINGINLRLNIKYENVPIFEIEKKYVKELKKKLKNIHIHDIKHVSNTFDARLNCIQRTYVYFFINKNYNIEKMKKAAKLFIGEHDFSNCCKKGKNVTSNRRTVLKFDIRNIDKHFYYFKIKGISFLYNQIRHMVAILFLVGKGLLDNNDVNNILNNTSTKRKNYHIADENGLLLYSFKFNDYKYNNHVNNKIFLNVMNKYIQSTMLLVSLCHPLKLENKNEDFFENLDDEDIKNDVIHNNMIKEINKK has soluble on expression in E. coli of not soluble

soluble on expression in E. coli in this record for MTAGLHHAAANGVRVRPFRRHPTKRYILTGAPGAGKTVLLRALETAGEVVVEEAATDVIALAQAQGVDQPWTDPGFIDTIVGLQRQRQTRAVGDRIFFDRSPVCALALARFLGHPVSALLEDELARIVREGVYQRRVFLVQGLGFITPTAARRISLDDAQAFEEVHQAAYTELGFELAPIAPGPVGDRVRRVLGAVLEHHHHHH : not soluble

Entry MSELSGKGCEIIVPFEERLPVRDIEKSIIKKYRKNLWSKFMKAIRDYKLVEEGDKIAVAISGGKDSILMAKMFQELKKHGQVNFDVEFIAMDPGYHANIRQLLIDNCEYLNIPIHLFDSRIFEIADEIAKDYPCYMCARMRRGALYSKAEELGCNKLALGHHYDDVIETTMLNLLCAGNFKTMLPKLNSTNFEGIKIIRPLYYIREEHIIRFIQNSGIWPLNCAC , soluble on expression in E. coli reported as not soluble

The sequence MSLKIAVIGCGAMGSIYAAKLAAAGEQVLAVDRHRPSVERINRDGLRVTGPGCDQVVPLRASTGAVDETMDLVVLAVKAADVEAAARQALPMLGPDTAVLTIQNGLGSAETVAGVVGAQRVAVGIASGFGASRVAPGHVHHNAMRAMRFGPYSSLPHARVESIARTWAHAGFDAAAVTDIAAMQWEKLICNVAYSAPCALTGMTVGQVMDDAEMGPVSRAAATEAWSVARASGVAIAVADAVEHVRAFGAQMPDAKPSALLDHEARRVSEIDVINGAVPRQGARVGVDAPVNATLTAVVKSIERRWREGHHHHHH showed soluble on expression in E. coli equal to not soluble

Input MDRISQLSDDLLLQILSFIPGKDVVATSLLSKRWQSLWMLVSELEYDDSYHTGDYKSFSQFVYRSLLSNNAPVIKHLHLNLGPDCPAIDIGLWIGFALTRRLRQLKINIRTSSNDASFSLPSSLYTSDTLETLRLINFVLLDVPSSVCLPSLKVLHLKTVDYEDDASLPSLLFGCPNLEELFVERHDQDLEMDVTFVVPSLRRLSMIDKNYGQCDRYVIDVPSLKYLNITDDAVYDVRQIENMPELVEAHVDITQGVTHKFLRALTSVRQLSLCLSLSEKQHESGLCGIETPIGWKLPSSVPECLLFSLEAFEWIGYKGRRGDREVATYVLKNAACLRTAKFSPESTDVGEKYHMLKELASVPTASTSSKLLFD . Output soluble on expression in E. coli: soluble

soluble on expression in E. coli measured on MDYQTFEKVNKFINVKAYIFFLTQELKQQYKLSLKELLILAYFYYKNEHSISLKEIIGDILYKQSDVVKNIKSLSKKGFINKSRNEADERRIFVSVTPIQRKKIACVINELDKIIKGFNKERDYIKYQWAPKYSKEFFILFMNIMYSKDFLKYRFNLTFLDLSILYVISSRKNEILNLKDLFESIRFMYPQIVRSVNRLNNKGMLIKERSLADERIVLIKINKIQYNTIKSIFTDTSKILKPRKFFF = not soluble

So, MSFFFLEVLTYFDYDSSMTIKAEIKALAKEIGISKIGFTTADNFDYLEKSLRASVEEGRNSGFEHKVIEDRIYTERLLESAKTIISIGVAYPHKLPQQPQKTPYKRGKITPSSWGLDYHYVVGEKLDRLSKGIEELCRDFPLQQKAMVDTGALVDTAVAQRAGIGFIGKNGLVISKEYGSYMFLGELITNLEIEPDKPVDYDCGDCRRCLDACPTSCLIGDGSMNAKRCLSFQTQDKGMMDIEFRKKIKTVIYGCDICQICCPYNKGINNSPATEIDPELAQPELIPFLSLSNGKFKEKFGMIAGSWRGKNILQRNAIIALANAHDKTAVVKLIEIIDKNNNPIHTATAIWALGEIVKKPNDEILAFMSHLTLKDEDSRKELELIRHKWQF ? Its soluble on expression in E. coli was not soluble
